# Test system: alternative splicing of a specific gene (GFP/RFP reporter)
# Assay: Compound screen with GFP/RFP alternative splicing reporter
# Type: cell-based
# Experimental Parameters: 50 ng/mL
I'd be grateful if you could share measured Number of cells for these entries.
One number for each entry.

These solved cases illustrate the format of a correct answer.
Molecule | Number of cells
O=c1[nH]cc(F)c(=O)[nH]1 (racemic) [5-fluorouracil] | 433
CC(=O)[C@]1(O)Cc2c(O)c3c(c(O)c2[C@@H](O[C@H]2C[C@H](N)[C@H](O)[C@H](C)O2)C1)C(=O)c1ccccc1C3=O (racemic) [Idarubicin] | 34
CC(C)NCC(O)COc1cccc2ccccc12 (stereo not shown) [Propranolol] | 2641

Below: the item to evaluate.
Read off the recorded Number of cells for COC(=O)C1=C(C)NC(C)=C(C(=O)OC)C1c1ccccc1[N+](=O)[O-] [Nifedipine] 156

Values were extracted from patent US9273364B2.
